Target: PD-L1 (Homo sapiens)
Construct: determine if they can specifically dimerize the extracellular domains of PD-L1
Sequence (Q9NZQ7 19-238 limits assumed): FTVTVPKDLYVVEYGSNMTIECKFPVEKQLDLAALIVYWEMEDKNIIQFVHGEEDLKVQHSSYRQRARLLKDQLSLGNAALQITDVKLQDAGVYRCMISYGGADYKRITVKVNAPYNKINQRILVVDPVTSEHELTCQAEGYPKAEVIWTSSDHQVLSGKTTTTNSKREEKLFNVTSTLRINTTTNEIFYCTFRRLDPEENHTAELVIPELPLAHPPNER
Sequence (Q9NZQ7 19-238 limits assumed): as above
Assay: PD-L1/PD-L1 dimerization biochemical protein-protein interaction assay (ALPHA)
Assay type: binding
Conditions: compound-induced PD-L1 dimerization, head prints '1 nM' (0.5 nM His-tagged PD-L1 and 0.5 nM FLAG-tagged PD-L1), read-out: AC50 PDL1 Dimer Alpha 1 nM
Measurement Kind: AC50
Form field: result (number plus unit)

Below, 5 compounds whose answers are already recorded.
Compound	AC50
Cc1c(COc2cc(OCc3cncc(C#N)c3)c(CN[C@@](C)(CO)C(=O)O)cc2Cl)cccc1-c1cccc(-c2ccc(CNCCn3ccnn3)cc2)c1C [Example 580]	231 nM
Cc1c(COc2cc(OCc3cncc(C#N)c3)c(CNC[C@@H](O)CC(=O)O)cc2Cl)cccc1-c1cccc(-c2ccc(CNC[C@@H](O)CC(=O)O)c(SC(F)F)c2)c1C [Example 460]	302 nM
CC(C)(NCc1cc(Br)c(OCc2cccc(-c3cccc(-c4ccc5c(c4)C[C@@H](N)C5)c3Cl)c2Cl)nc1OCc1cncc(S(C)(=O)=O)c1)C(=O)O [Example 545]	24.4 nM
COc1cc(-c2cccc(-c3cccc(COc4cc(OCc5cncc(C#N)c5)c(CN[C@@](C)(CO)C(=O)O)cc4Cl)c3C)c2C)ccc1C1=NCCN1 [Example 501]	35.3 nM
COc1nc(O[C@H]2CCc3c(-c4cccc(-c5ccc(CNC[C@@H]6CCC(=O)N6)cc5)c4Cl)cccc32)c(Cl)cc1CNC[C@@H]1CCC(=O)N1 [Example 730]	40.7 nM

For COc1nc(O[C@H]2CCc3c(-c4cccc(-c5ccc(C6=NCCN6)c(OC)n5)c4Cl)cccc32)c(Br)cc1CN1CCCC[C@H]1C(=O)O [Example 785] on PD-L1 (Homo sapiens), measured AC50 was 16.1 nM

For C[C@@](CO)(NCc1cc(Cl)c(O[C@H]2CCc3c(-c4cccc(-c5ccc6c(c5)CC(N)C6)c4Cl)cccc32)nc1OCc1cncc(C#N)c1)C(=O)O (stereo partly shown) [Example 795] on PD-L1 (Homo sapiens), measured AC50 was 9.65 nM

For Cc1c(COc2cc(OCc3cncc(C#N)c3)c(CN[C@@](C)(CO)C(=O)O)cc2Cl)cccc1-c1cccc(-c2ccc3c(c2)ncc(=O)n3CCN(C)C)c1C [Example 469] on PD-L1 (Homo sapiens), measured AC50 was 73.5 nM

For COc1nc(O[C@H]2CCc3c(-c4cccc5c4CC[C@@H]5Oc4nc(OC)c(CNC[C@@H](O)CC(=O)O)cc4Br)cccc32)c(Br)cc1CNC[C@@H](O)CC(=O)O [Example 7] on PD-L1 (Homo sapiens), measured AC50 was 140 nM

For N#Cc1cc(C#N)cc(COc2nc(OCc3cccc(-c4cccc(-c5ccc(OCCNCCO)cc5)c4Cl)c3Cl)c(Cl)cc2CNC[C@@H](O)CC(=O)O)c1 [Example 351] on PD-L1 (Homo sapiens), measured AC50 was 168 nM

For COc1nc(O[C@H]2CCc3c(-c4cccc(-c5ccc(CNC[C@@H]6CCC(=O)N6)c(OCC#N)c5)c4Cl)cccc32)c(Cl)cc1CN[C@@H]1CCC[C@@H]1O [Example 650] on PD-L1 (Homo sapiens), measured AC50 was 8.2 nM

For C[C@@](CO)(NCc1cc(Cl)c(O[C@H]2CCc3c(-c4cccc(-c5ccc(OCCN6CC[C@@H](O)C6)cc5)c4Cl)cccc32)nc1OCc1cncc(S(C)(=O)=O)c1)C(=O)O [Example 669] on PD-L1 (Homo sapiens), measured AC50 was 17.2 nM

For COc1nc(OCc2cccc(-c3cccc(-c4ccc(OCCNC[C@H](O)CC(=O)O)cc4)c3C)c2C)c(Cl)cc1CNC[C@H](O)CC(=O)O [Example 110] on PD-L1 (Homo sapiens), measured AC50 was 194 nM

For C[C@@](CO)(NCc1cc(Cl)c(O[C@H]2CCc3c(-c4cccc(-c5ccc(OCCN6CC[C@@H](O)C6)cc5)c4Cl)cccc32)nc1OCc1cncc(C#N)c1)C(=O)O [Example 668] on PD-L1 (Homo sapiens), measured AC50 was 16.5 nM

For Cc1c(COc2cc(OCc3cncc(C#N)c3)c(CNCCO)cc2Cl)cccc1-c1cccc(-c2ccc(C3CCCN3)cc2)c1C (stereo not shown) [Example 379] on PD-L1 (Homo sapiens), measured AC50 was 153 nM

For COc1nc(-c2cccc(-c3cccc4c3CC[C@@H]4Oc3nc(OC)c(CN4CCCC(C)(C(=O)O)C4)cc3Cl)c2Cl)ccc1CNC[C@@H]1CCC(=O)N1 (stereo partly shown) [Example 761] on PD-L1 (Homo sapiens), measured AC50 was 13.2 nM

For CS(=O)(=O)c1cncc(COc2nc(OCc3cccc(-c4cccc(-c5ccc6c(c5)C[C@@H](N)C6)c4Cl)c3Cl)c(Br)cc2CN2CCCC[C@H]2C(=O)O)c1 [Example 544] on PD-L1 (Homo sapiens), measured AC50 was 17.3 nM

For COc1nc(O[C@H]2CCc3c(-c4cccc(-c5cnc6c(CN7CC8(CNC(=O)C8)C7)cn(C)c6n5)c4Cl)cccc32)c(Cl)cc1CN1CC[C@@H](C(=O)O)C1 [Example 525] on PD-L1 (Homo sapiens), measured AC50 was 34.8 nM

For Cc1c(COc2nc(OCC3COC3)c(CNC[C@@H](O)CC(=O)O)cc2Br)cccc1-c1cccc(COc2nc(OCC3COC3)c(CNC[C@@H](O)CC(=O)O)cc2Br)c1C [Example 132] on PD-L1 (Homo sapiens), measured AC50 was 279 nM

For Cc1c(COc2cc(OCc3cncc(C#N)c3)c(CNC[C@@H](O)CC(=O)O)cc2Cl)cccc1-c1cccc(-c2cc3c(cc2F)C(N(C)C)CC3)c1C (stereo partly shown) [Example 372] on PD-L1 (Homo sapiens), measured AC50 was 425 nM

For C[C@@](CO)(NCc1cc(Br)c(O[C@H]2CCc3c(-c4cccc(-c5ccc(CNC[C@@H]6CCC(=O)N6)cc5)c4Cl)cccc32)nc1OCc1cncc(C#N)c1)C(=O)O [Example 741] on PD-L1 (Homo sapiens), measured AC50 was 3.1 nM

For Cc1c(COc2cc(OCc3cncc(C#N)c3)c(CN[C@@](C)(CO)C(=O)O)cc2Cl)cccc1-c1cccc(-c2ccc(OCCNCCO)c(C(=O)NC3CC3)c2)c1C [Example 459] on PD-L1 (Homo sapiens), measured AC50 was 89.9 nM
